# tested.target: mPGES-1 in A549 cells (Homo sapiens (Human), UniProt O14684)
# assay.procedure: A549 cell-based assay (PGE2 formation, 50% human serum)
# test.settings: IL-1β 5 ng/ml, 10 nM arachidonic acid, 20-24 h, read-out: mPGES-1 inhibitory effect IC50 in the cell assay
assay.metric: pIC50
Bear in mind: pIC50 is minus log10 of a mol/L concentration; give just that figure.

INSERT INTO assay_data (compound, assay_metric, measured_value) VALUES
  ('CN(c1cc2c(cc1C(=O)N[C@H]1CC[C@H](C(F)(F)F)CC1)nc(Nc1c(Cl)ccc(CNC(=O)C(C)(C)C)c1Cl)n2C)C1CC[S+]([O-])C1 (stereo partly shown)', 'pIC50', 8.00),
  ('Cn1c(Nc2c(Cl)ccc(CNC(=O)C(C)(C)C)c2Cl)nc2cc(C(=O)Nc3ccc(F)c(Cl)c3)c(N3CC[C@@H](F)C3)cc21', 'pIC50', 8.82),
  ('Cn1c(Nc2c(Cl)ccc(CNC(=O)C(C)(C)C)c2Cl)nc2cc(C(=O)N[C@H]3CC[C@H](C(F)(F)F)CC3)c(N3CCN(CC(F)(F)F)CC3)cc21', 'pIC50', 8.82),
  ('Cc1noc(N)c1C(=O)NCc1ccc(Cl)c(Nc2nc3cc(C(=O)N[C@H]4CC[C@H](C(F)(F)F)CC4)c(N4CC5CC5C4)cc3n2C)c1Cl (stereo partly shown)', 'pIC50', 7.00),
  ('Cn1c(Nc2c(Cl)ccc(CNC(=O)C(C)(C)C)c2Cl)nc2cc(C(=O)N[C@H]3CC[C@H](C(F)(F)F)CC3)c(N3CC(OC(F)F)C3)cc21', 'pIC50', 8.30);

Q: Form field: reported pIC50 of Cn1c(Nc2c(Cl)ccc(CNC(=O)C(C)(C)C)c2Cl)nc2cc(C(=O)N[C@H]3CC[C@H](C(F)(F)F)CC3)c(N3CCOCC3)cc21
A: 8.70

Q: Entry Cn1c(Nc2c(Cl)ccc(CNC(=O)C(C)(C)C)c2Cl)nc2cc(C(=O)N[C@H]3CC[C@H](C(F)(F)F)CC3)c(N3CC4CCCC4C3)cc21 (stereo partly shown) : reported pIC50 = ?
A: 8.82

Q: Return reported pIC50; argument: Cn1c(Nc2c(Cl)ccc(CNC(=O)C(C)(C)F)c2Cl)nc2cc(C(=O)Nc3ccc(OC(F)(F)F)cc3)c(N3CCOCC3)cc21
A: 8.70

----------
# tested.target: mPGES-1 in A549 cells (Homo sapiens (Human), UniProt O14684)
# assay.procedure: A549 cell-based assay (PGE2 formation, 50% human serum)
# test.settings: IL-1β 5 ng/ml, 10 nM arachidonic acid, 20-24 h, read-out: mPGES-1 inhibitory effect IC50 in the cell assay
assay.metric: pIC50
// pIC50 here means minus log10 of the molar concentration (mol/L)

INSERT INTO results (compound, assay_metric, measured_value) VALUES
  ('CCn1c(C(=O)NCc2ccc(Cl)c(Nc3nc4cc(C(=O)N[C@H]5CC[C@H](C(F)(F)F)CC5)c(N5CC6CC6C5)cc4n3C)c2Cl)cccc1=O (some centres unmarked)', 'pIC50', 8.10),
  ('Cn1c(Nc2c(Cl)ccc(CNC(=O)C(C)(C)F)c2Cl)nc2cc(C(=O)NC3CC(F)(F)C3)c(N3CCC(C(F)(F)F)CC3)cc21', 'pIC50', 9.00),
  ('Cn1c(Nc2c(Cl)ccc(CNC(=O)C(C)(C)C)c2Cl)nc2cc(C(=O)N[C@H]3CC[C@H](C(F)(F)F)CC3)c(N3CCC4(CC4)C3)cc21', 'pIC50', 8.70);

In the following, a different compound is considered.
Q: Reported pIC50, compound Cn1c(Nc2c(Cl)ccc(CNC(=O)C(C)(C)C)c2Cl)nc2cc(C(=O)Nc3cc(C(C)(C)C)on3)c(N3CCC(C(F)(F)F)CC3)cc21 : ____
A: 8.40

----------
# key: entry, value: pIC50
# tested.target: recombinant human mPGES-1 (Homo sapiens (Human))
# Sequence (O14684 whole entry): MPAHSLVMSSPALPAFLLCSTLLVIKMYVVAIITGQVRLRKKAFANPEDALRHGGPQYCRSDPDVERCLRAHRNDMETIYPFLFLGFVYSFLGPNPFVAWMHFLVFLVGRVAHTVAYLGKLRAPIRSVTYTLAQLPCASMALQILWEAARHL
# assay.procedure: mPGES-1 enzyme assay (HTRF detection of PGE2)
# Assay type: biochemical
# test.settings: recombinant human mPGES-1 microsomes, PGH2 2 μM, 60 seconds; read-out: mPGES-1 inhibitory effect IC50 in the enzyme assay
A value of pIC50 is the negative decimal logarithm of a concentration given in moles per litre.

A selection of reference data follows.
INSERT INTO results (compound, tested_target, measured_value) VALUES
  ('Cn1c(Nc2c(Cl)ccc(CNC(=O)C(C)(C)C)c2Cl)nc2cc(C(=O)N[C@H]3CC[C@H](C(F)(F)F)CC3)c(N3CCC(O)(C(F)(F)F)CC3)cc21 [Example 82]', 'recombinant human mPGES-1 (Homo sapiens (Human))', 8.52),
  ('Cn1c(Nc2c(Cl)ccc(CNC(=O)C(C)(C)C)c2Cl)nc2cc(C(=O)NCc3ccc(F)cc3C(F)(F)F)c(N3CCC(F)(F)C3)cc21 [Example 44]', 'recombinant human mPGES-1 (Homo sapiens (Human))', 8.40);

Let's switch to this compound now.
Q: Which pIC50 value belongs to Cn1c(Nc2c(Cl)ccc(CNC(=O)C(C)(C)C)c2Cl)nc2cc(C(=O)N[C@H]3CC[C@H](C(F)(F)F)CC3)c(NC3CC(F)(F)C3)cc21 [Example 4] ?
A: 8.30

----------
# tested.target: mPGES-1 in A549 cells (Homo sapiens (Human), UniProt O14684)
# assay.procedure: A549 cell-based assay (PGE2 formation, 50% human serum)
# test.settings: IL-1β 5 ng/ml, 10 nM arachidonic acid, 20-24 h, read-out: mPGES-1 inhibitory effect IC50 in the cell assay
pIC50: −log10 of the molar value.
Known pIC50 of a selection of compounds

INSERT INTO assay_data (compound, measured_value) VALUES
  ('Cn1c(Nc2c(Cl)ccc(CNC(=O)C(C)(C)C)c2Cl)nc2cc(C(=O)Nc3ccc(Cl)c(F)c3)c(N3CCC(C(F)(F)F)CC3)cc21', '> 9.00'),
  ('CN(CC(F)F)c1cc2c(cc1C(=O)Nc1ccc(OC(F)(F)F)cc1)nc(Nc1c(Cl)ccc(CNC(=O)C(C)(C)C)c1Cl)n2C', '> 9.00'),
  ('Cn1c(Nc2c(Cl)ccc(CNC(=O)C(C)(C)C)c2Cl)nc2cc(C(=O)N[C@H]3CC[C@H](C(F)(F)F)CC3)c(N3CC4CCC(C3)O4)cc21', '> 9.00'),
  ('Cn1c(Nc2c(Cl)ccc(CNC(=O)C(C)(C)C)c2F)nc2cc(C(=O)Nc3ccc(F)c(Cl)c3)c(N3CCC(F)(F)C3)cc21', '> 9.00');

Q: Fill in the recorded pIC50 for this compound, with mPGES-1 in A549 cells (Homo sapiens (Human), UniProt O14684) as test system: CC(O)CN(C)c1cc2c(cc1C(=O)N[C@H]1CC[C@H](C(F)(F)F)CC1)nc(Nc1c(Cl)ccc(CNC(=O)C(C)(C)C)c1Cl)n2C (some centres unmarked)
A: > 9.00
